- target.or.test.system: T1, human EphB4 (Homo sapiens, UniProt P54760)
- T1 construct: a protein of the extracellular region of each human Eph receptor fused with the SEAP protein and the His tag; made in house; host or cells: Expi293F cells
- T1 sequence (P54760 16-539 limits assumed): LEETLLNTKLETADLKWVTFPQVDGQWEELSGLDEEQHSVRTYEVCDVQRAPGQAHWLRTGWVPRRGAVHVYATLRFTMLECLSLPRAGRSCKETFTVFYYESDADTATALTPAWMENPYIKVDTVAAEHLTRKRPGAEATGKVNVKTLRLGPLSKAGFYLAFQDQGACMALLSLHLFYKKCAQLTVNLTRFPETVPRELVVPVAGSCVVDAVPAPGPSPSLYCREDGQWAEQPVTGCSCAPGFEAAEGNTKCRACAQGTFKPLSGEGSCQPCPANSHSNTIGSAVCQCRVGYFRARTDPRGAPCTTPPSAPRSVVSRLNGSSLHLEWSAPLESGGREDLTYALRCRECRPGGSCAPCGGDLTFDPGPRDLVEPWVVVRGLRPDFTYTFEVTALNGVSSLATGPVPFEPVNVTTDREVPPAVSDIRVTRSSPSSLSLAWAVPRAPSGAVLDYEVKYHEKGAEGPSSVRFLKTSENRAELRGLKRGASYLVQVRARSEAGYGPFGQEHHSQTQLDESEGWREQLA
- protocol.description: Selectivity ELISA of humanized antibodies for human Eph receptor
- Assay type: binding
- details: coated protein 1 nM
recorded.endpoint: hEphB4-SEAP-: absorbance at 450 nm, percentage with respect to hEphA4-SEAP-His as 100% (%)
The reply should be a number in %, with the unit left off.

Query :: Param item = 78 (antibody, V domains shown, synthetic humanized antibody heavy chain variable region sequence; synthetic humanized antibody light chain variable region sequence) VH: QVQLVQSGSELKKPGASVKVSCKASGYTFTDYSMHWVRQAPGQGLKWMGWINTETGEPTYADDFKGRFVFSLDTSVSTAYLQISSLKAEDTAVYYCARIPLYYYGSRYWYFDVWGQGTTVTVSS VL: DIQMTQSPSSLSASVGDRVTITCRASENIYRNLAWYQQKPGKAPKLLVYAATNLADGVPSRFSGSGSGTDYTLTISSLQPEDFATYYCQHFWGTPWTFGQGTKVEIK ; retrieve measured hEphB4-SEAP-: absorbance at 450 nm, percentage with respect to hEphA4-SEAP-His as 100%.
Result :: 5.1

// data source = patent US10428140B2
